tested on: SK-MEL-28 melanoma; test: NCI tumour cell line growth inhibition, 48 h
Give TGI for every item shown.

A selection of reference data follows.
{"COMPOUND": "N#Cc1c(-c2ccccc2)/c(=C\\Nc2ccc(Cl)cc2)c(=O)n2c1nc1ccccc12", "RESULT": "> 100 µM"}
{"COMPOUND": "CN(C(=O)C12C3C4C5C3C1(C(=O)O)C5C42)C(C)(C)C (stereo not drawn)", "RESULT": "> 100 µM"}
{"COMPOUND": "Cc1c(C(=O)/C=C/c2csc3ccccc23)[n+](=O)c2ccccc2n1[O-]", "RESULT": "4.81 µM"}
{"COMPOUND": "C[C@H](Nc1ncnc2nc[nH]c12)c1cc2cccc(Cl)c2c(=O)n1-c1ccccc1", "RESULT": "> 100 µM"}
{"COMPOUND": "CC1=NCCc2c1[nH]c1cc(O)ccc21", "RESULT": "> 100 µM"}
{"COMPOUND": "C/C(N=Nc1nc2ccccc2s1)=C1/C=CC=CN1O", "RESULT": "> 100 µM"}
{"COMPOUND": "COc1ccc(-c2cc(=O)c3cc4c(cc3[nH]2)OCO4)c(OC)c1OC", "RESULT": "> 100 µM"}
{"COMPOUND": "COC(=O)c1csnn1", "RESULT": "> 100 µM"}

Batch lookup, TGI per entry.
1. Cc1ccc2c(ccc3c[n+]4c5ccccc5ccc4n32)c1
2. COc1cccc(/C=C/C(=O)c2cccc(Nc3nc(Nc4ccccc4)nc(Nc4ccccc4)n3)c2)c1
3. Cc1cc(C)c2c(=O)n(CN3CC4Nc5ccccc5C4C3)sc2n1 (stereo not drawn)
4. CC1(C)O[C@@H]2COC(=O)[C@@H]2O1

Out:
3.32 µM
56.2 µM
82.3 µM
> 100 µM

###

tested on: SF-268 CNS; test: NCI tumour cell line growth inhibition, 48 h
MEASURED_ENDPOINT: TGI

{"MOLECULE": "O=C1OC(=O)C(c2c[nH]c3ccccc23)=C1c1c[nH]c2ccccc12", "TGI": "> 25 µM"}
{"MOLECULE": "O=c1c2ncn(C3CC(O)C(CO)O3)c2nnn1Cc1ccccc1[N+](=O)[O-] (stereo unspecified)", "TGI": "> 100 µM"}

Dear colleague, could you send me TGI for each of the items below? Thanks.
1. O=C1CCSSCCC(=O)NCCN1
2. CCN1C(=O)N(CC)C2C1NN=c1s/c(=C\c3cccnc3)c(=O)n12 (stereo unspecified)
3. CSC1CC2C(CC1(C)O)C2(C)C (stereo unspecified)
4. COc1ccc(-c2ccc(/C=N/n3c(COc4ccc(Cl)cc4Cl)n[nH]c3=S)o2)c([N+](=O)[O-])c1
5. COC(=O)CCC(NC(=S)N/N=C(\C)c1nccs1)C(=O)OC (stereo unspecified)

Out:
> 100 µM
> 100 µM
> 100 µM
67.1 µM
> 100 µM

Hi team, please reply with TGI for each item in this list.
1. CC(=O)NNc1nc(C)c(C(=O)NNC(=O)C(=O)Nc2ccccc2C#N)s1
2. C=C(Cl)/C(=C\Cl)CCC(Br)C(C)C (stereo unspecified)
3. Cc1cc(C)c2c(=O)n(CN3CC4Nc5ccccc5C4C3)sc2n1 (stereo unspecified)
4. CC(C)=CCc1c2c(c3occ(-c4ccc(O)c(O)c4)c(=O)c3c1O)C=CC(C)(C)O2
5. NC(CSCc1ccccc1)C(=O)O (stereo unspecified)
6. COc1ccc(N2C(=O)c3c4c(c5c([nH]c6ncccc65)c3C2=O)CCC(C(C)(C)C)C4)cc1 (stereo unspecified)

Out:
> 100 µM
> 100 µM
54.1 µM
4.93 µM
> 100 µM
> 100 µM

// each molecule listed below needs its TGI
1. O=C(NC(Cc1c[nH]c2ccccc12)C(=O)O)/C(=C/c1ccccc1O)NC(=O)c1ccccc1 (stereo unspecified)
2. CCN(CC)S(=O)(=O)c1ccc(OC)c(Nc2ncc(-c3ccccc3)o2)c1
3. COc1cc(/C=C/C(=O)O)ccc1C(=O)O/C=C/c1ccccc1
4. COC(=O)/C=C/C=C(c1ccccc1)c1ccccc1
5. C/C(=N/NC(N)=S)c1ccc2ccccc2c1

Out:
1. 45.6 µM
2. > 25 µM
3. > 100 µM
4. > 100 µM
5. > 100 µM

Go through the list and state TGI for each entry.
1. O=C1c2ccccc2-c2c1c1ccccc1c(=O)n2CCCNCCCNCCCn1c2c(c3ccccc3c1=O)C(=O)c1ccccc1-2
2. CN(C)/C=C/c1nnc([N+](=O)[O-])s1

Out:
["4.13 µM", "42.1 µM"]
